target: Leucine aminopeptidase (Plasmodium falciparum (isolate 3D7)) (UniProt Q8IL11); experiment: P. falciparum M17LAP inhibitors, primary screen, biochemical, fluorogenic H-Leu-NHMec substrate, 1536-well (AID 1619); conditions: recombinant M17LAP, H-Leu-NHMec fluorogenic kinetic assay; at 30 µM; active compounds read high;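 further: plate controls were full reaction with DMSO carrier for no effect and no enzyme background for full effect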
Sequence (Q8IL11 whole entry, looked up): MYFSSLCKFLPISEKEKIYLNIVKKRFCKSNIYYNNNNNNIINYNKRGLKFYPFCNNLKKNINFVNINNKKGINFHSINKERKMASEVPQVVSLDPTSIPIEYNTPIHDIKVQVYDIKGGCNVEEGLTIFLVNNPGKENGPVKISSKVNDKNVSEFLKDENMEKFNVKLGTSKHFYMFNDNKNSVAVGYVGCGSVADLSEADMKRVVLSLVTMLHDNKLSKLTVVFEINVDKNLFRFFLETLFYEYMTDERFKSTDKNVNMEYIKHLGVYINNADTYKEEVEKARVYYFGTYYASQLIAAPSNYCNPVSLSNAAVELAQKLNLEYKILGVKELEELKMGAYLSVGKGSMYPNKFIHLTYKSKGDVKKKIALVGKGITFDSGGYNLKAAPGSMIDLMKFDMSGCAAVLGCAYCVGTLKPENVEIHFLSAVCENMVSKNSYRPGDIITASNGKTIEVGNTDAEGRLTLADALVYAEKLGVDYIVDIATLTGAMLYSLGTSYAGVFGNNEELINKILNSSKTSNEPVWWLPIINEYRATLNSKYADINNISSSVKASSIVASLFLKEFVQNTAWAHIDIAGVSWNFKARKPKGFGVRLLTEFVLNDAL
Screen size: about 220,000 compounds; about 830 (0.38%) were called active. Not all results are given here. Results with a measured potency or affinity are listed apart.
assay.endpoint: inhibition (%)
Just the number please, in %, no unit attached.

Here are 5 molecules together with their reported answers.
{"molecule": "CC1CN(Cc2ccc(C#N)cc2Cl)CC(C)O1 (stereo unspecified)", "system": "Leucine aminopeptidase (Plasmodium falciparum (isolate 3D7)) (UniProt Q8IL11)", "inhibition, %": -2.17}
{"molecule": "O=C(Nc1ccc(Br)cc1Cl)NC1CC1", "system": "Leucine aminopeptidase (Plasmodium falciparum (isolate 3D7)) (UniProt Q8IL11)", "inhibition, %": -4.66}
{"molecule": "C=CCNCCOc1c(C)cc(C)cc1Cl", "system": "Leucine aminopeptidase (Plasmodium falciparum (isolate 3D7)) (UniProt Q8IL11)", "inhibition, %": 20.1}
{"molecule": "Cc1ccc(C(=O)NC2CCCCNC2=O)cc1C (stereo unspecified)", "system": "Leucine aminopeptidase (Plasmodium falciparum (isolate 3D7)) (UniProt Q8IL11)", "inhibition, %": 4.43}
{"molecule": "O=C(CCc1ccccc1)NNC(=S)Nc1ccc(F)cc1", "system": "Leucine aminopeptidase (Plasmodium falciparum (isolate 3D7)) (UniProt Q8IL11)", "inhibition, %": 5.08}

Next molecule, please.
The molecule listed as CC(C)(C)OC(=O)N1CCCC1C(=O)O (stereo unspecified) has a reported inhibition of -3.69
